FYI, the data here is from ChEMBL document CHEMBL1147940.

molecular target: Opioid receptors; mu & delta (Rattus norvegicus) (UniProt P33533+P33535); experiment: Selectivity for rat mu opioid receptor over rat delta opioid; format: protein assay
Sequence (P33533 whole entry, looked up): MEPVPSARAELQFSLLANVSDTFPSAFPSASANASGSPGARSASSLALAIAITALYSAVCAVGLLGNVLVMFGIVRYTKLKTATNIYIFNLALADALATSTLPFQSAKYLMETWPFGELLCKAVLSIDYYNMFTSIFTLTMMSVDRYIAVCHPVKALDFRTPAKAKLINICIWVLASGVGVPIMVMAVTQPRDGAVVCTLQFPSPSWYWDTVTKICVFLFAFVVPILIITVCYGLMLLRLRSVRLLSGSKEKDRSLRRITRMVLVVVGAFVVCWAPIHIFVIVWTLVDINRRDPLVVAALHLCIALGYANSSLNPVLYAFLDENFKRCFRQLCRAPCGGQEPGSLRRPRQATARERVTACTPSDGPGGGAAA
Sequence (P33535 whole entry, looked up): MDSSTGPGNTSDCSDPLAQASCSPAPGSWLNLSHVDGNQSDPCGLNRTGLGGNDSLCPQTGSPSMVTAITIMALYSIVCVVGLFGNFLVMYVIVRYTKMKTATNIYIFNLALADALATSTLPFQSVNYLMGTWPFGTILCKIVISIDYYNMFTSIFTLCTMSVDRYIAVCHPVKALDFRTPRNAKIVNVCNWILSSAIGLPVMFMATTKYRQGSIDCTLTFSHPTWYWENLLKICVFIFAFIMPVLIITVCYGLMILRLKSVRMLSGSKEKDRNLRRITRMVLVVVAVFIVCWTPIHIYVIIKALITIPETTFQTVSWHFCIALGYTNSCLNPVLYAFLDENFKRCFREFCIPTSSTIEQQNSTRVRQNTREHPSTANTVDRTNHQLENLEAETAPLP
Residues, ends and D or L forms follow the SMILES beside them.
quantity kind: Ratio IC50

- compound: "NC(=O)[C@H](Cc1c(F)c(F)c(F)c(F)c1F)NC(=O)[C@H](Cc1ccccc1)NC(=O)[C@@H]1CCCN1C(=O)[C@@H](N)Cc1ccc(O)cc1"
  tested target: "Opioid receptors; mu & delta (Rattus norvegicus) (UniProt P33533+P33535)"
  recorded value: 1000
- compound: "NC(=O)[C@H](CC1CCCCC1)NC(=O)[C@H](Cc1ccccc1)NC(=O)[C@@H]1CCCN1C(=O)[C@@H](N)Cc1ccc(O)cc1 (HELM PEPTIDE1{Y.P.F.[Cha].[am]}$$$$V2.0)"
  tested target: "Opioid receptors; mu & delta (Rattus norvegicus) (UniProt P33533+P33535)"
  recorded value: 21.3
- compound: "NC(=O)[C@H](Cc1ccccc1)NC(=O)[C@H](Cc1ccc(O)cc1)NC(=O)[C@@H]1CCCN1C(=O)[C@@H](N)Cc1ccc(O)cc1 (H-YPYF-NH2)"
  tested target: "Opioid receptors; mu & delta (Rattus norvegicus) (UniProt P33533+P33535)"
  recorded value: 5.2
- compound: "CCCC[C@H](NC(=O)[C@@H]1CCCN1C(=O)[C@@H](N)Cc1ccc(O)cc1)C(=O)N[C@@H](Cc1ccccc1)C(N)=O (HELM PEPTIDE1{Y.P.[Nle].F.[am]}$$$$V2.0)"
  tested target: "Opioid receptors; mu & delta (Rattus norvegicus) (UniProt P33533+P33535)"
  recorded value: 66.1
- compound: "NC(=O)[C@H](Cc1ccccc1)NC(=O)[C@H](CC1CCCCC1)NC(=O)[C@@H]1CCCN1C(=O)[C@@H](N)Cc1ccc(O)cc1 (HELM PEPTIDE1{Y.P.[Cha].F.[am]}$$$$V2.0)"
  tested target: "Opioid receptors; mu & delta (Rattus norvegicus) (UniProt P33533+P33535)"
  recorded value: 21.3
- compound: "NC(=O)[C@H](Cc1ccc(O)cc1)NC(=O)[C@H](Cc1ccccc1)NC(=O)[C@@H]1CCCN1C(=O)[C@@H](N)Cc1ccc(O)cc1 (H-YPFY-NH2)"
  tested target: "Opioid receptors; mu & delta (Rattus norvegicus) (UniProt P33533+P33535)"
  recorded value: 5.2
- compound: "NC(=O)[C@H](Cc1ccccc1)NC(=O)[C@H](Cc1c(F)c(F)c(F)c(F)c1F)NC(=O)[C@@H]1CCCN1C(=O)[C@@H](N)Cc1ccc(O)cc1"
  tested target: "Opioid receptors; mu & delta (Rattus norvegicus) (UniProt P33533+P33535)"
  recorded value: 1000
